Values were extracted from the Immune Epitope Database (IEDB).

assayed_target: HLA-A*69:01
test_description: IEDB peptide-MHC binding, purified MHC/direct/fluorescence; filed as Kd, often an IC50 or EC50 that approximates it; bounds were set here for any values at or beyond the usual limits of such assays
run_parameters: source organism: Orthohantavirus hantanense
quantity_measured: Kd

construct_sequence: FIYGYLEPV
result_value: ≤ 1 nM

* * *

assayed_target: HLA-B*44:02
test_description: IEDB peptide-MHC binding, purified MHC/competitive/radioactivity; filed as Kd, often an IC50 or EC50 that approximates it; bounds were set here for any values at or beyond the usual limits of such assays
run_parameters: source organism: Mammarenavirus lassaense
Measured Kd, listed per entry.
quantity_measured: Kd

construct_sequence: YDFVLVGPC
result_value: 1 µM

construct_sequence: EELITDVEFL
result_value: 5.16 µM

construct_sequence: GEPKMTKAL
result_value: ≥ 20.3 µM

construct_sequence: NENPGGYCL
result_value: 0.152 µM
